biological target: Lysine-specific histone demethylase 1A (Homo sapiens, UniProt O60341); assay: biochemical
Description: Inhibition of LSD1 (unknown origin) expressed in Sf9 cells using H3K4(me2) as substrate preincubated for 30 mins prior to substrate addition measured after 90 mins by horseradish peroxidase assay
Documented IC50 across a set of compounds
measurementName: IC50 (µM)

>>> observed("C#CCNCCCC[C@H](NC(=O)c1ccccc1)C(=O)OC(C)(C)C")
144
>>> observed("CC#CCNCCCC[C@H](NC(=O)c1ccccc1)C(=O)OC(C)(C)C")
132
>>> observed("OC(CNC1CC1)COc1ccc2cc(Br)ccc2c1 (stereo not drawn)")
111
